- EXPERIMENTAL SYSTEM: Full length Human HDAC1 (Homo sapiens, UniProt Q13547)
- Sequence (Q13547 whole entry): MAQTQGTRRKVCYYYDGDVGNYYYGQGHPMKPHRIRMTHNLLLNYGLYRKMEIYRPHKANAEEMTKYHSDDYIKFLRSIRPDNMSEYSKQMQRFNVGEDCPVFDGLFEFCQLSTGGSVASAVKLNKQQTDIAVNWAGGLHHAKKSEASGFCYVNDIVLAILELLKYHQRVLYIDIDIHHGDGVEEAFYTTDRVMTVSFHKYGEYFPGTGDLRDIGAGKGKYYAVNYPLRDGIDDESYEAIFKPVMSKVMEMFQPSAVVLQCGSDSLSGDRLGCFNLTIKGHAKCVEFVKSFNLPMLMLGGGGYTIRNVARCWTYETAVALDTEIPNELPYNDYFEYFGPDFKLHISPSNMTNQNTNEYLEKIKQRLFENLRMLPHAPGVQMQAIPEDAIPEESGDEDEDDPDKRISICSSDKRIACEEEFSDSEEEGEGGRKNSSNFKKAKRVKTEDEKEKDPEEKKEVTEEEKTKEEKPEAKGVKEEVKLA
pIC50: −log10 of the molar value.
READOUT: pIC50

MOLECULE: O=C(NO)c1cc(F)c2c(c1)CCN(CC13CC4CC(CC(C4)C1)C3)C2 [compound 34]
VALUE REPORTED: 4.00 to 5.00
--
MOLECULE: O=C(NO)c1cc(F)c2c(c1)CN1CCC[C@@H]1C2 (single isomer, unassigned) [compound 124]
VALUE REPORTED: < 4.00
--
MOLECULE: O=C(NO)c1cc(F)c2c(c1)C[C@H]1CCCCN1C2 (single isomer, unassigned) [compound 94]
VALUE REPORTED: < 4.00
--
MOLECULE: O=C(NO)c1cc(F)c2c(c1)C[C@@H]1CCCCN1C2 (single isomer, unassigned) [compound 93]
VALUE REPORTED: 4.00 to 5.00
--
MOLECULE: O=C(NO)c1ccc2c(c1)CN1CCCCN1C2 [compound 106]
VALUE REPORTED: 4.00 to 5.00
--
MOLECULE: C[C@@H]1C[C@H]2c3c(F)cc(C(=O)NO)cc3CCN2C1 (single isomer, unassigned) [compound 152]
VALUE REPORTED: 4.00 to 5.00
--
MOLECULE: O=C(NO)c1cc(F)c2c(c1)CCN1CCC[C@@H]21 (single isomer, unassigned) [compound 79]
VALUE REPORTED: 5.00 to 6.00

###

- EXPERIMENTAL SYSTEM: Full length Human HDAC6 (Homo sapiens, UniProt Q9UBN7)
- Sequence (Q9UBN7 whole entry): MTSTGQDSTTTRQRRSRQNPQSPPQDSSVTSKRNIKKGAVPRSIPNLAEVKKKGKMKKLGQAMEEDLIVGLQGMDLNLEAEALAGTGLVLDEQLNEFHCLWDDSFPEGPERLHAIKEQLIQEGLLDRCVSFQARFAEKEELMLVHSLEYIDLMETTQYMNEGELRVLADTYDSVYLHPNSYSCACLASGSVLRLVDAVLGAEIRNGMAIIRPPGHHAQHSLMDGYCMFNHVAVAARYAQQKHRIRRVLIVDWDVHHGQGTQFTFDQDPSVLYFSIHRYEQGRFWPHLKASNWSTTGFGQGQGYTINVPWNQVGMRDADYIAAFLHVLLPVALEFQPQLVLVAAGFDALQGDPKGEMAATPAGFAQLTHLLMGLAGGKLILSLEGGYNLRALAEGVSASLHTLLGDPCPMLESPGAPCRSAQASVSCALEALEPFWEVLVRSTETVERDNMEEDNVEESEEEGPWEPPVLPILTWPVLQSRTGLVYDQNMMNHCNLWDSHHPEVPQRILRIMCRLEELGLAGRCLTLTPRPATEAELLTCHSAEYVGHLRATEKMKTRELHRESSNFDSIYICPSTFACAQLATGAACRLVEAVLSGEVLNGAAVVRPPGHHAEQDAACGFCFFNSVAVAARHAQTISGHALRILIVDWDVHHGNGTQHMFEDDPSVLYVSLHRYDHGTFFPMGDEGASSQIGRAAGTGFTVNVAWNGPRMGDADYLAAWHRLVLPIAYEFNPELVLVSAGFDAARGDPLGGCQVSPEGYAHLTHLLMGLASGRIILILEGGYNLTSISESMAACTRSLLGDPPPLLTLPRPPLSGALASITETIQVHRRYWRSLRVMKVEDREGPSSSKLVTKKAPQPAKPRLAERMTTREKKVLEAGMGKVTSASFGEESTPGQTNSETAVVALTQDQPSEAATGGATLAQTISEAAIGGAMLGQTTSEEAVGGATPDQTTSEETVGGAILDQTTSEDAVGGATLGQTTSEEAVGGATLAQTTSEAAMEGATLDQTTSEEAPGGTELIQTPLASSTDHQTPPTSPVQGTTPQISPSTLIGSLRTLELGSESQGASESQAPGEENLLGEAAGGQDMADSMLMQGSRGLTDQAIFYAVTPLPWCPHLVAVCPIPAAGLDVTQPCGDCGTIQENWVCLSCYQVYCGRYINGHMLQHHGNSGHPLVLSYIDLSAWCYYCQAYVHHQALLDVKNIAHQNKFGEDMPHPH
- ASSAY CONTEXT: ratio of HDAC8 IC50/HDAC6 IC50; Table 1, range class

COMPOUND: O=C(NO)c1cc(F)c2c(c1)CN(CC13C4C5C6C4C1C6C53)CC2 (stereo not shown)
Selectivity (6 v 8) (fold): III (III: >10-100)
//
COMPOUND: CN1CC2(CCCCC2)CC[C@H]1Cc1cc(F)cc(C(=O)NO)c1 (single isomer, unassigned)
Selectivity (6 v 8) (fold): III (III: >10-100)
//
COMPOUND: O=C(NO)c1ccc2c(c1)CN1CCCC[C@@H]1C2 (single isomer, unassigned)
Selectivity (6 v 8) (fold): III (III: >10-100)
//
COMPOUND: O=C(NO)c1ccc(CN2C3CCCC2COC3)c(F)c1
Selectivity (6 v 8) (fold): III (III: >10-100)
//
COMPOUND: CN1CC2CCC1CN2Cc1ccc(C(=O)NO)cc1F (stereo not shown)
Selectivity (6 v 8) (fold): III (III: >10-100)
//
COMPOUND: O=C(NO)c1ccc(CN2CCC3(CC2)C2CC4CC(C2)CC3C4)c(F)c1
Selectivity (6 v 8) (fold): III (III: >10-100)
//
COMPOUND: O=C(NO)c1ccc2c(c1)CN1CCC[C@@H]21 (single isomer, unassigned)
Selectivity (6 v 8) (fold): III (III: >10-100)
//
COMPOUND: O=C(NO)c1ccc2c(c1)CN1CCC[C@H]21 (single isomer, unassigned)
Selectivity (6 v 8) (fold): II (II: >1-10)
//
COMPOUND: O=C(NO)c1ccc(CN2CC3(COC3)C2)c(F)c1
Selectivity (6 v 8) (fold): III (III: >10-100)
//
COMPOUND: O=C(NO)c1ccc2c(c1)CCN1CCCC[C@@H]21 (single isomer, unassigned)
Selectivity (6 v 8) (fold): II (II: >1-10)
//
COMPOUND: CN1CC2(CCCCC2)CC[C@@H]1Cc1cc(F)cc(C(=O)NO)c1 (single isomer, unassigned)
Selectivity (6 v 8) (fold): III (III: >10-100)
//
COMPOUND: CC[C@@H]1CCCN1Cc1ccc(C(=O)NO)cc1F (single isomer, unassigned)
Selectivity (6 v 8) (fold): III (III: >10-100)
//
COMPOUND: O=C(NO)c1ccc(CN2CC3(CCOCC3)C2)c(F)c1
Selectivity (6 v 8) (fold): III (III: >10-100)
//
COMPOUND: O=C(NO)c1ccc(CN2CC3(CCOC3)C2)c(F)c1
Selectivity (6 v 8) (fold): III (III: >10-100)
//
COMPOUND: O=C1CC2CCCC(C1)N2Cc1ccc(C(=O)NO)cc1F
Selectivity (6 v 8) (fold): III (III: >10-100)
//
COMPOUND: O=C(NO)c1cc(F)c(CN2C3CCC2COC3)cc1F
Selectivity (6 v 8) (fold): III (III: >10-100)
//
COMPOUND: O=C(NO)c1cc(F)c2c(c1)CCN([C@@H]1CCC13CCCCC3)C2 (single isomer, unassigned)
Selectivity (6 v 8) (fold): IV (IV: >100-1000)
//
COMPOUND: O=C(NO)c1ccc(CN2CC3(CCCC3)C2)c(F)c1
Selectivity (6 v 8) (fold): III (III: >10-100)
//
COMPOUND: O=C(NO)c1cc(F)c2c(c1)CCN(C1CCC13CCCCC3)C2 (stereo not shown)
Selectivity (6 v 8) (fold): IV (IV: >100-1000)
//
COMPOUND: O=C(NO)c1cc(F)c2c(c1)C[C@H]1CCC3(CCCCC3)CN1C2 (single isomer, unassigned)
Selectivity (6 v 8) (fold): III (III: >10-100)
//
COMPOUND: CC[C@@H](c1ccccc1)N1CCc2cc(C(=O)NO)cc(F)c2C1 (single isomer, unassigned)
Selectivity (6 v 8) (fold): IV (IV: >100-1000)
//
COMPOUND: Cc1ccn2c1-c1c(F)cc(C(=O)NO)cc1CC2
Selectivity (6 v 8) (fold): II (II: >1-10)
//
COMPOUND: O=C(NO)c1ccc2c(c1)C[C@H]1CCCN1C2 (single isomer, unassigned)
Selectivity (6 v 8) (fold): III (III: >10-100)
//
COMPOUND: CN1Cc2cc(C(=O)NO)ccc2-c2cccn21
Selectivity (6 v 8) (fold): II (II: >1-10)
//
COMPOUND: O=C1CC2CCC(C1)N2Cc1ccc(C(=O)NO)cc1F
Selectivity (6 v 8) (fold): III (III: >10-100)
//
COMPOUND: O=C(NO)c1ccc2c(c1)CCN1CCCC[C@H]21 (single isomer, unassigned)
Selectivity (6 v 8) (fold): II (II: >1-10)
